readoutLabel: melting point

compound | readoutLabel | readoutValue
O=C(C1CCN(c2ccncc2)CC1)N1CCCN(S(=O)(=O)c2ccc3ccccc3c2)CC1 | melting point | 178 to 180 °C
CCOC(=O)C(CNC(=O)C1CCN(c2ccncc2)CC1)NC(=O)CNS(=O)(=O)c1ccc2ccccc2c1 (stereo not drawn) | melting point | 142 to 145 °C
O=C(O)C1CN(S(=O)(=O)c2ccc3cc(Br)ccc3c2)CCN1C(=O)C1CCN(c2ccncc2)CC1 (stereo not drawn) | melting point | 216 to 222 °C (dec.)

Output measured melting point for this item: O=C(CNS(=O)(=O)c1ccc2ccccc2c1)NC(CNC(=O)C1CCN(c2ccncc2)CC1)C(=O)O (stereo not drawn)
108 to 111 °C (dec.)

Output measured melting point for this item: O=C(O)C1CN(S(=O)(=O)c2ccc3ccccc3c2)CCN1C(=O)C1CCN(c2ccncc2)CC1 (stereo not drawn)
225 to 228 °C (dec.)

Output measured melting point for this item: Cc1ccc(NC(=O)NC(CNC(=O)C2CCN(c3ccncc3)CC2)C(=O)N2CCCCC2)cc1 (stereo not drawn)
252 to 253 °C

Output measured melting point for this item: Cc1cc(N2CCC(C(=O)NCCNC(=O)CNS(=O)(=O)c3ccc4ccccc4c3)CC2)nc(N)n1
225 to 226 °C

Output measured melting point for this item: O=C(CNS(=O)(=O)c1ccc2ccccc2c1)NCCNC(=O)C1CCN(c2ccncn2)CC1
178 to 179 °C

Output measured melting point for this item: O=C(C1CCN(c2ccncc2)CC1)N1CCN(S(=O)(=O)c2ccc3ccccc3c2)C(Cc2ccccc2)C1 (stereo not drawn)
186 to 188 °C

Output measured melting point for this item: O=C(C1CCN(c2ccncn2)CC1)N1CCN(S(=O)(=O)/C=C/c2ccc(Cl)cc2)CC1
209 to 210 °C

Output measured melting point for this item: O=C(N1CCN(c2ccncc2)CC1)N1CCN(S(=O)(=O)c2ccc3ccccc3c2)CC1
210 to 212 °C

Output measured melting point for this item: Nc1nccc(N2CCC(C(=O)N3CCN(S(=O)(=O)c4ccc5cc(Cl)ccc5c4)CC3)CC2)n1
265 to 267 °C

Output measured melting point for this item: O=C(C1CN(S(=O)(=O)c2ccc3cc(Br)ccc3c2)CCN1C(=O)C1CCN(c2ccncc2)CC1)N1CCOCC1 (stereo not drawn)
235 to 237 °C

Output measured melting point for this item: O=C(C1CCN(c2nc(Cl)nc(Cl)n2)CC1)N1CCN(S(=O)(=O)c2ccc3cc(Cl)ccc3c2)CC1
230 to 233 °C

Output measured melting point for this item: O=C(CCNS(=O)(=O)c1ccc2ccccc2c1)NC(CNC(=O)C1CCN(c2ccncc2)CC1)C(=O)N1CCCCC1 (stereo not drawn)
201 to 203 °C

====

For reference, IC50 measured on human thrombin (Homo sapiens, UniProt P00734):

Study these solved cases before continuing.
compound | IC50
O=C(C1CCN(c2ccncc2)CC1)N1CCN(S(=O)(=O)c2ccc(-c3ccc(Cl)cc3)cc2)CC1 [Example 41, Compound No. 3] | 83 µM
O=C(C1CCN(c2ccncc2)CC1)N1CCN(S(=O)(=O)/C=C/c2ccc(Cl)cc2)CC1 [Example 39, Compound No. 2] | > 100 µM
O=C(CNS(=O)(=O)c1ccc2ccccc2c1)NC(CNC(=O)C1CCN(c2ccncc2)CC1)C(=O)N1CCCCC1 (stereo not shown) [Example 1] | > 100 µM

# context switch: different compound, same IC50
Print human thrombin (Homo sapiens, UniProt P00734) IC50 for O=C(O)C1CN(S(=O)(=O)c2ccc3cc(Cl)ccc3c2)CCN1C(=O)C1CCN(c2ccncc2)CC1 (stereo not shown) [Example 63] .
> 10 µM

====

Quick list: melting point per entry.

compound | melting point
O=C(O)C1CN(C(=O)C2CCN(c3ccncc3)CC2)CCN1S(=O)(=O)c1ccc2ccccc2c1 (stereo not drawn) | 188 to 193 °C
Cl.O=C(c1ccc(NS(=O)(=O)c2ccc(-c3ccc(Br)cc3)cc2)cc1)N1CCN(c2ccncc2)CC1 | 201 to 205 °C

Output measured melting point for this item: O=C(C1CCN(S(=O)(=O)c2ccc3cc(Br)ccc3c2)CC1)N1CCN(c2ccncc2)CC1
229 to 230 °C
